System: M. tuberculosis H37Rv
Assay: MIC against M. tuberculosis H37Rv in 7H9 medium with various supplements
Assay type: cell-based, Mycobacterium tuberculosis
Conditions: Mycobacterium tuberculosis, H37RV; read-out: MIC, GLU/CAS/TX
MIC under 5 µM gets 1, anything at or over 5 µM gets -1.

Recorded results for 2 compounds are shown here.
COMPOUND: COCC1[C@@H](C)OC(=O)N1c1noc2c(F)c3c(cc12)CC1(C(=O)NC(=O)NC1=O)[C@H]1[C@H](C)O[C@H](C)CN31 (some centres unmarked)
ASSIGNED_CATEGORY: -1

COMPOUND: C[C@@H]1CN2c3c(cc4c(-n5ncnc5NCCO)noc4c3F)CC3(C(=O)NC(=O)NC3=O)[C@H]2[C@H](C)O1
ASSIGNED_CATEGORY: 1

Prompt: Is the reported MIC for C[C@@H]1CN2c3c(cc4c(C5=N[C@H]6COC[C@H]6N5)noc4c3F)CC3(C(=O)NC(=O)NC3=O)[C@H]2[C@H](C)O1 strictly below 5 µM?
Response: -1

Prompt: Is the reported MIC for CC1CN2c3c(cc4c(N5CC(CO)OC5=O)noc4c3Cl)CC3(C(=O)NC(=O)NC3=O)C2C(C)O1 (centres unmarked) strictly below 5 µM?
Response: 1

Prompt: Is the reported MIC for CC1CN2c3c(cc4c(N5C(=O)OC6CCOCC65)noc4c3F)CC3(C(=O)NC(=O)NC3=O)C2C(C)O1 (centres unmarked) strictly below 5 µM?
Response: 1

Prompt: Is the reported MIC for CC1CN2c3c(cc4c(N5CC(c6ccccn6)OC5=O)noc4c3F)CC3(C(=O)NC(=O)NC3=O)C2C(C)O1 (centres unmarked) strictly below 5 µM?
Response: -1

Prompt: Is the reported MIC for CC(=O)NCC1CN(c2cc3c(c(F)c2F)N2C[C@H](C)O[C@H](C)[C@H]2C2(C3)C(=O)NC(=O)NC2=O)C(=O)O1 (some centres unmarked) strictly below 5 µM?
Response: -1

Prompt: Is the reported MIC for C[C@@H]1CN2c3c(cc4c(-n5ncnc5N5CCOC[C@H]5C)noc4c3F)CC3(C(=O)NC(=O)NC3=O)[C@H]2[C@H](C)O1 strictly below 5 µM?
Response: -1

Prompt: Is the reported MIC for C[C@@H]1CN2c3c(cc4c(N5CCN(C)C5=O)noc4c3F)CC3(C(=O)NC(=O)NC3=O)[C@H]2[C@H](C)O1 strictly below 5 µM?
Response: -1

----------
Test: in vivo
Conditions: male, mouse, po, 100 mg/kg
OBSERVABLE: Cmax
// unit must come after the numeric part

Prompt: Which Cmax value is on record for Cc1nnc(-c2noc3c(F)c4c(cc23)CC2(C(=O)NC(=O)NC2=O)[C@H]2[C@H](C)O[C@H](C)CN42)o1 ?
Response: 47000 ng/mL

----------
Assay: physchem
Settings: pH 6.5
OBSERVABLE: solubility thermodynamic (µM)
One number for each entry, in µM.

Prompt: Which solubility thermodynamic value is on record for Cc1nnc(-c2noc3c(F)c4c(cc23)CC2(C(=O)NC(=O)NC2=O)[C@H]2[C@H](C)O[C@H](C)CN42)o1 ?
Response: 140

----------
Target: M. tuberculosis DNA gyrase (Mycobacterium tuberculosis, UniProt P9WG45+P9WG47)
Sequence (P9WG45 whole entry): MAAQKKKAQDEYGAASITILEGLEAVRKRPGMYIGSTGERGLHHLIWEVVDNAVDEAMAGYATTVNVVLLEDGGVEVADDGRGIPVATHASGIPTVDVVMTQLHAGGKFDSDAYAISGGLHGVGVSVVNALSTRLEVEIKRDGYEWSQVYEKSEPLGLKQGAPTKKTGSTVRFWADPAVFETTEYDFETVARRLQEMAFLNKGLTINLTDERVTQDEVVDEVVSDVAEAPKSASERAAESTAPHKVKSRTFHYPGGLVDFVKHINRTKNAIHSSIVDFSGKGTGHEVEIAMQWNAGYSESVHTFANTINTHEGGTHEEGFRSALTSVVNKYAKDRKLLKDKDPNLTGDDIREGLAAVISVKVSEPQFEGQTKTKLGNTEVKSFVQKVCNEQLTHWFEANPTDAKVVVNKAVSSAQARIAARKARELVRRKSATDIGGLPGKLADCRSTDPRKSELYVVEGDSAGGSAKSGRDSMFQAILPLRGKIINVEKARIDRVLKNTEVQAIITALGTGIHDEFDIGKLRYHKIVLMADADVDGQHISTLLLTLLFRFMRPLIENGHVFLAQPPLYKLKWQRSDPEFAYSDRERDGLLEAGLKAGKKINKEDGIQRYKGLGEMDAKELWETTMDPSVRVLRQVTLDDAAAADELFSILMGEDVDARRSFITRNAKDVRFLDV
Sequence (P9WG47 whole entry): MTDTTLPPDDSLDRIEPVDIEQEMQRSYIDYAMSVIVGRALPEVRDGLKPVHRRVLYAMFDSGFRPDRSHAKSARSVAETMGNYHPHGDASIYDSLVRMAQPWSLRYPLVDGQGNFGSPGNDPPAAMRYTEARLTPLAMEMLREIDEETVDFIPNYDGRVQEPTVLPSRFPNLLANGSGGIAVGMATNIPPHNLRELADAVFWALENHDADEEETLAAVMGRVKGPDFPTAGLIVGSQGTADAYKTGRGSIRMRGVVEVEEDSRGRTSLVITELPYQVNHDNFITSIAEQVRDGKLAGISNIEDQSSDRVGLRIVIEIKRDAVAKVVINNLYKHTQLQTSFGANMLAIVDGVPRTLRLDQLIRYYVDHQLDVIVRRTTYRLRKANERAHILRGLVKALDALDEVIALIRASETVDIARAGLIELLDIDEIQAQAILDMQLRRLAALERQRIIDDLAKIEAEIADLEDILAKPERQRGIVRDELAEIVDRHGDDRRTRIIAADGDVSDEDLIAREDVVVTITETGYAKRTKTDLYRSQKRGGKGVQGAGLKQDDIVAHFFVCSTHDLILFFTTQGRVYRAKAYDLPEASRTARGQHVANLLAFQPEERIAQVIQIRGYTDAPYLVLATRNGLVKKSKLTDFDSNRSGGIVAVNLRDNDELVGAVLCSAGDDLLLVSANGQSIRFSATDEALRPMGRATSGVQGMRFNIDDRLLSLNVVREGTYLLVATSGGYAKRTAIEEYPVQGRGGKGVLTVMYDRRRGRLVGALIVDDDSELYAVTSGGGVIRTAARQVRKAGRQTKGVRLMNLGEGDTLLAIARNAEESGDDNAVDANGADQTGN
Assay: biochemical
Details: read-out: IC50, DNA gyrase supercoiling
OBSERVABLE: IC50

Prompt: Which IC50 value is on record for Cc1nnc(-c2noc3c(F)c4c(cc23)CC2(C(=O)NC(=O)NC2=O)[C@H]2[C@H](C)O[C@H](C)CN42)o1 ?
Response: 2000 nM

Hello, the source for this data is paper PMC9017349, in case you need it.
